- assayRemarks: yeast display, Sf9 membrane polyspecificity reagent, FACS + sequencing; frameworks hold sequencing errors
readoutLabel: polyreactivity (PSR sort gate)

Some sequences with known polyreactivity (PSR sort gate) results, for comparison:
Task item: Can you share its polyreactivity (PSR sort gate)? I mean this sequence: QVQLVESGGGLVQAGGSHRLSCAASGSIFGVYVMGWYRQAPGKERELVAAITRGASTNYADSVKGRFTISRDNAKNSVYLQMNSLKPEDTAVYYCAARQVSVSGHQYGYWGQGSQVTVSS
Reply: low polyreactivity

Task item: Which polyreactivity (PSR sort gate) is listed for QVQLVESGGGLVQAGGSLRLICAASGSTFDGYAMGWYRQAPGKERELVAAISKNGVRTYYADSVKGRFTISRDNAKNTVYLLMNSLKPEDTAVYYCAKDIIKYDYDYWGQGTQVTVSS ?
Reply: low polyreactivity

Task item: Consider the sequence shown here: QVQLVESGGGLVQAGGSLRLSCAASGSTFVSYAMGWYRQAPGKERELVAAISWSGGSTYYADSVKGRFTISRDNAKNTVYLQMNSLKTEDTAVYYCAAELDWWYDYWGQGTQVTVSS What is its recorded polyreactivity (PSR sort gate)?
Reply: high polyreactivity

Task item: I am curious: what polyreactivity (PSR sort gate) value has been reported for QVQLVESGGGLVQAGGSLRLSCSPSGSILYGNAMGWYRQAPGKERELVAAITSGGSTYYADSVKGRFTISRDNAKNTVYLQMNSLKPEDTAVYYCNTVWATKGDYWGHGTQVTVSS ?
Reply: high polyreactivity

Task item: Recorded polyreactivity (PSR sort gate) of QVQLVESGGGLVQAGGSLRLICAASGFNLEYYSMGWYRQATGKERELVAVITESDGNTYYPDSVKGRFTISRDTAKNTVYLQMYSLKPEDTALYYCAAPYSFIQGGIRRGYHGYVYWGQGTQVTVSS , please.
Reply: low polyreactivity

Next:
Task item: I have this sequence here, QVQLVESGGGLVQAGGSLRLSCAASGITFRYYAMGWYRQAPGKERELVAVITYSGSRTYYADSVKGRFTISRDNAKNTVYLQMNSLKPEDTAVYYGATKGAKRVIGETAYDYWGQGTQVTVSS , and I need its recorded polyreactivity (PSR sort gate).
Reply: high polyreactivity

Task item: Quick one: polyreactivity (PSR sort gate) for QVQLVESGGGLVQAGGSLRLSCAASGYTLGDYAMGWYRQAPGKERELVAAISSGGITSYADSVKGRFTISRDNAKNTVYLQMNSLKPEDTAVYYCNAAIVGFTRAYQYDYWGQGTQVTVSS ?
Reply: high polyreactivity

Task item: I have this sequence here, QVQLVESGGGLVQAGGSLRLSCAASGGTFSFNAMGWYRQAPGKERELVAAITQTGDGTYYADSVKGRFTISRDNAKNTVYLQMNSLKPEDTAVYYCNTDSIPYVPWFRFDYWGQGTQVTVSS , and I need its recorded polyreactivity (PSR sort gate).
Reply: low polyreactivity

Task item: So what does the record say about polyreactivity (PSR sort gate) for QVQLVESGGGLVQAGGSLRLSCAASGSTFSDNAMGWYRQAPGKDRELVAAINYSDGSTNYADSVKGRFTISRDNAKNTVYLQMNSLKPEDTAVYYCAVDIYFWCYGWWGPYDYWGQGTQVTVSS ?
Reply: low polyreactivity

Task item: Which polyreactivity (PSR sort gate) value belongs to HVQLVESGGGLVQAGGSLRLSCAASGSTFTRNAMGWSRQAPGKEWELVAVISSRGGRTYYADSVKGRFTISRDNAKNTVDLQMNSLKPEATAVYYCAARYVIPLGNTYDYWGPGTQVTVSS ?
Reply: high polyreactivity

Task item: What polyreactivity (PSR sort gate) value was documented for this sequence, QVQLVESGGGLVQAGGSLRLSCAASGSIFADYAMGWSRQAPGKEREFVAAITRSGTSTYYADSVKGRFTISRDNAKNTVYLQMNSLKPEDTAVYYCAKTEVLLYLYTLDYWGQGTQVTVSS ?
Reply: low polyreactivity
